B1: glmS ribozyme (parent)
chain: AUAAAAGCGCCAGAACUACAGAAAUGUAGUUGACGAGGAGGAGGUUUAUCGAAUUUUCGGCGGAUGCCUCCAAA

Variants of: B1
testDescription: self-cleavage kobs at 10000 uM GlcN6P; higher = faster cleavage; RNA array
conditionDescription: with glucosamine-6-phosphate
This sample holds only a part of the variants without activity.
For each record, write down the corresponding self-cleavage kobs at 10000 uM GlcN6P.
One number for each entry, in s⁻¹.

See these solved cases before continuing.
1. C11A U45A U46G : 0.000161
2. A42G C50U : 8.57e-05
3. U31G G59A : 4.18e-05
4. A15G A42U : 0.000203

Kindly give each listed record's self-cleavage kobs at 10000 uM GlcN6P.
1. U31C A39C
2. U65A G66A C67G C71U

[A]
[0.00102, "6.69e-05"]

// input: 5 variants below; output: self-cleavage kobs at 10000 uM GlcN6P for each
1. A36U C67U C70G
2. G32U A52G C58A C70A
3. U30A U56C
4. C16U U45C U55G
5. U55G C70U C71G

[A]
1: 3.53e-05; 2: 4.31e-05; 3: 0.00113; 4: 0.00144; 5: 0.000142

So for A39C U47C C70U , the logged self-cleavage kobs at 10000 uM GlcN6P turned out to be 0.000412

Data credit: the supplement of paper PMC7125110
